- Test system: HepG2
- procedure_summary: Cytotoxicity against human HepG2 cells assessed as growth inhibition after 72 hrs by Cell-Titer Glo assay
- Assay type: cell-based
- test_context: HepG2, 72 h
Documented EC50 across a set of compounds

Prompt: Quick one: EC50 for `O=C(Nc1cccc(-c2nc3ccccc3s2)c1)c1cc([N+](=O)[O-])cnc1Cl` ?
Response: > 25 µM

Further cases:
Prompt: Quick one: EC50 for `O=C(O)/C=C/C(=O)Nc1cccc(-c2nc3ccccc3s2)c1` ?
Response: > 25 µM

Prompt: Quick one: EC50 for `C=CC(=O)Nc1cccc(-c2nc3ccccc3s2)c1` ?
Response: > 25 µM

Prompt: Quick one: EC50 for `O=C(Nc1ccc(Cl)cc1)c1cc([N+](=O)[O-])ccc1Cl` ?
Response: > 25 µM

Prompt: Quick one: EC50 for `CN(C)CCC(=O)Nc1cccc(-c2nc3ccccc3s2)c1` ?
Response: 21 µM

Prompt: Quick one: EC50 for `O=C(Nc1ccc(F)c(-c2nc3ccccc3s2)c1)c1cnccc1Cl` ?
Response: > 25 µM
